Source of measurements: patent US10815233B2

// IC50 lookup, one value per entry
Biological target: human blood coagulation factor XIa (Homo sapiens, UniProt P03951)
Construct: human blood coagulation factor XIa (Haematologic Technologies Inc.)
Sequence (P03951 388-625 limits assumed): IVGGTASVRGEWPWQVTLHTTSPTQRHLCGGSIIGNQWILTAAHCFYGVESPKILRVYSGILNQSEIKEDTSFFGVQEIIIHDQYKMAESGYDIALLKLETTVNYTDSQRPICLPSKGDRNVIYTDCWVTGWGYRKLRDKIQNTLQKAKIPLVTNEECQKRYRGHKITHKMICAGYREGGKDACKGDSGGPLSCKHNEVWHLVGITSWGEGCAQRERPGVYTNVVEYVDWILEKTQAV
Sequence (P03951 19-387 partner limits assumed): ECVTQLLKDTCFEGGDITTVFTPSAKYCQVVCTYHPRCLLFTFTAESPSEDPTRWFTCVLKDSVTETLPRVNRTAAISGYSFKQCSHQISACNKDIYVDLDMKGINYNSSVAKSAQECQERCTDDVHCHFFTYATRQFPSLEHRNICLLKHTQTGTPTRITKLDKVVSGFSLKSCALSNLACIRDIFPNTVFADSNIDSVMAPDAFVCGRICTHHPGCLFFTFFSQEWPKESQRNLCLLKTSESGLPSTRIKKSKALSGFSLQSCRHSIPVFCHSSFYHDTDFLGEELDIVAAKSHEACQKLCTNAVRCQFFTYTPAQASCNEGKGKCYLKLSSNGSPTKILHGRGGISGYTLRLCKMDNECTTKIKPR
Test: Inhibitory activity on human blood coagulation factor XIa (chromogenic substrate S-2366)
Conditions: chromogenic substrate S-2366, 37° C.; read-out: FXIa inhibitory activity IC50
READOUT KIND: IC50 (nM)

1. COC(=O)Nc1ccc(-c2nc(Cl)c([C@@H]3CCc4nc(-c5cc(Cl)ccc5-n5cnnn5)cc(=O)n43)[nH]2)cc1 [Comparative Example 3 (1)] | 1.6
2. Nc1ccc(-c2nc(Cl)c([C@@H]3CCc4cc(-c5cc(Cl)ccc5-n5cnnn5)cc(=O)n43)[nH]2)c(F)n1 [Comparative Example 2 (3)] | 4.4
3. Nc1ccc(-c2[nH]c([C@@H]3CCc4cc(-c5cc(Cl)ccc5-n5cnnn5)cc(=O)n43)nc2F)cn1 [Comparative Example 1 (3)] | 1.4
4. Nc1ccc(-c2[nH]c([C@@H]3CCc4cc(-c5cc(Cl)ccc5-n5cnnn5)cc(=O)n43)nc2F)c(F)n1 [Example 1 (6)] | 1.7
5. Nc1ccc(-c2nc(F)c([C@@H]3CCc4cc(-c5cc(Cl)ccc5-n5cnnn5)cc(=O)n43)[nH]2)c(F)n1 [Example 2 (10)] | 1.7
6. N#Cc1cn(-c2ccc(Cl)cc2-c2cc3n(c(=O)c2)[C@H](c2nc(Cl)c(-c4ccc(N)nc4)[nH]2)CC3)nn1 [Comparative Example 4] | 2.7
7. N#Cc1cn(-c2ccc(Cl)cc2-c2cc3n(c(=O)c2)[C@H](c2nc(F)c(-c4ccc(N)cc4)[nH]2)CC3)nn1 [Example 4 (10)] | 5.4
8. Nc1ccc(-c2nc(F)c([C@@H]3CCc4cc(-c5cc(Cl)ccc5-n5cnnn5)cc(=O)n43)[nH]2)cn1 [Comparative Example 2 (5)] | 1.6
9. Nc1ccc(-c2[nH]c([C@@H]3CCc4nc(-c5cc(Cl)ccc5-n5cnnn5)cc(=O)n43)nc2Cl)c(F)n1 [Comparative Example 3 (2)] | 11
10. Nc1ccc(-c2nc(F)c([C@@H]3CCc4nc(-c5cc(Cl)ccc5-n5cnnn5)cc(=O)n43)[nH]2)c(F)n1 [Example 3 (4)] | 1.9
11. Nc1ccc(-c2ncc([C@@H]3CCc4cc(-c5cc(Cl)ccc5-n5cnnn5)cc(=O)n43)[nH]2)c(F)n1 [Comparative Example 2 (1)] | 19
12. Nc1ccc(-c2[nH]c([C@@H]3CCc4cc(-c5cc(Cl)ccc5-n5cnnn5)cc(=O)n43)nc2Cl)c(F)n1 [Comparative Example 1 (2)] | 4.8

====

Assay: Pharmacokinetic (PK) tests in rats
Type: in vivo
Settings: rats, 1 mg/kg per os; C8h divided by APTT×2
Please enter Fulfilled where C8h/APTT × 2 is greater than or equal to 0.3, and Not fulfilled where it is lower.

1) N#Cc1cn(-c2ccc(Cl)cc2-c2cc3n(c(=O)c2)[C@H](c2nc(F)c(-c4ccc(N)cc4)[nH]2)CC3)nn1 | Fulfilled
2) Nc1ccc(-c2[nH]c([C@@H]3CCc4nc(-c5cc(Cl)ccc5-n5cnnn5)cc(=O)n43)nc2Cl)c(F)n1 | Not fulfilled
3) Nc1ccc(-c2nc(F)c([C@@H]3CCc4cc(-c5cc(Cl)ccc5-n5cnnn5)cc(=O)n43)[nH]2)cn1 | Fulfilled
4) Nc1ccc(-c2[nH]c([C@@H]3CCc4cc(-c5cc(Cl)ccc5-n5cnnn5)cc(=O)n43)nc2F)cn1 | Not fulfilled
5) Nc1ccc(-c2nc(F)c([C@@H]3CCc4nc(-c5cc(Cl)ccc5-n5cnnn5)cc(=O)n43)[nH]2)c(F)n1 | Fulfilled
6) N#Cc1cn(-c2ccc(Cl)cc2-c2cc3n(c(=O)c2)[C@H](c2nc(Cl)c(-c4ccc(N)nc4)[nH]2)CC3)nn1 | Not fulfilled

====

Test: Pharmacokinetic (PK) tests in rats
Type: in vivo
Details: rat, plasma, po; fasted male Crj:CD(SD) rats, 1 mg/kg per os
Please enter Satisfied where AUC is greater than or equal to 20 µM·h, and Not satisfied where it is lower.

1) Nc1ccc(-c2nc(F)c([C@@H]3CCc4nc(-c5cc(Cl)ccc5-n5cnnn5)cc(=O)n43)[nH]2)c(F)n1 | Satisfied
2) COC(=O)Nc1ccc(-c2nc(Cl)c([C@@H]3CCc4nc(-c5cc(Cl)ccc5-n5cnnn5)cc(=O)n43)[nH]2)cc1 | Not satisfied
3) Nc1ccc(-c2[nH]c([C@@H]3CCc4cc(-c5cc(Cl)ccc5-n5cnnn5)cc(=O)n43)nc2Cl)c(F)n1 | Not satisfied
4) Nc1ccc(-c2[nH]c([C@@H]3CCc4cc(-c5cc(Cl)ccc5-n5cnnn5)cc(=O)n43)nc2F)cn1 | Not satisfied
5) N#Cc1cn(-c2ccc(Cl)cc2-c2cc3n(c(=O)c2)[C@H](c2nc(F)c(-c4ccc(N)cc4)[nH]2)CC3)nn1 | Satisfied
6) Nc1ccc(-c2cnc([C@@H]3CCc4cc(-c5cc(Cl)ccc5-n5cnnn5)cc(=O)n43)[nH]2)c(F)n1 | Not satisfied
7) Nc1ccc(-c2[nH]c([C@@H]3CCc4nc(-c5cc(Cl)ccc5-n5cnnn5)cc(=O)n43)nc2Cl)c(F)n1 | Not satisfied
8) Nc1ccc(-c2ncc([C@@H]3CCc4cc(-c5cc(Cl)ccc5-n5cnnn5)cc(=O)n43)[nH]2)c(F)n1 | Not satisfied
9) Nc1ccc(-c2nc(F)c([C@@H]3CCc4cc(-c5cc(Cl)ccc5-n5cnnn5)cc(=O)n43)[nH]2)cn1 | Not satisfied
10) N#Cc1cn(-c2ccc(Cl)cc2-c2cc3n(c(=O)c2)[C@H](c2nc(Cl)c(-c4ccc(N)nc4)[nH]2)CC3)nn1 | Not satisfied
11) Nc1ccc(-c2nc(Cl)c([C@@H]3CCc4cc(-c5cc(Cl)ccc5-n5cnnn5)cc(=O)n43)[nH]2)c(F)n1 | Satisfied
12) Nc1ccc(-c2nc(F)c([C@@H]3CCc4cc(-c5cc(Cl)ccc5-n5cnnn5)cc(=O)n43)[nH]2)c(F)n1 | Not satisfied
13) Nc1ccc(-c2[nH]c([C@@H]3CCc4cc(-c5cc(Cl)ccc5-n5cnnn5)cc(=O)n43)nc2F)c(F)n1 | Satisfied

====

Test: Pharmacokinetic (PK) tests in rats
Assay type: in vivo
Conditions: rats, 1 mg/kg per os; C8h divided by APTT×2
Please enter Yes where C8h/APTT × 2 is greater than or equal to 0.1, and No where it is lower.

1) COC(=O)Nc1ccc(-c2nc(Cl)c([C@@H]3CCc4nc(-c5cc(Cl)ccc5-n5cnnn5)cc(=O)n43)[nH]2)cc1 [Comparative Example 3 (1)] | Yes
2) Nc1ccc(-c2cnc([C@@H]3CCc4cc(-c5cc(Cl)ccc5-n5cnnn5)cc(=O)n43)[nH]2)c(F)n1 [Comparative Example 1 (1)] | Yes
3) Nc1ccc(-c2[nH]c([C@@H]3CCc4cc(-c5cc(Cl)ccc5-n5cnnn5)cc(=O)n43)nc2F)c(F)n1 [Example 1 (6)] | Yes
4) Nc1ccc(-c2nc(F)c([C@@H]3CCc4cc(-c5cc(Cl)ccc5-n5cnnn5)cc(=O)n43)[nH]2)c(F)n1 [Example 2 (10)] | Yes
5) Nc1ccc(-c2[nH]c([C@@H]3CCc4cc(-c5cc(Cl)ccc5-n5cnnn5)cc(=O)n43)nc2Cl)c(F)n1 [Comparative Example 1 (2)] | No
6) Nc1ccc(-c2nc(Cl)c([C@@H]3CCc4cc(-c5cc(Cl)ccc5-n5cnnn5)cc(=O)n43)[nH]2)c(F)n1 [Comparative Example 2 (3)] | Yes

====

Assay: Pharmacokinetic (PK) tests in rats
Type: in vivo
Details: male, Crj:CD(SD), rat, plasma, oral; rats, 1 mg/kg per os, 8 hours after administration; read-out: Plasma concentration C8h
Please enter t where concentration at 8 h is greater than or equal to 200 nM, and f where it is lower.

1) N#Cc1cn(-c2ccc(Cl)cc2-c2cc3n(c(=O)c2)[C@H](c2nc(F)c(-c4ccc(N)cc4)[nH]2)CC3)nn1 | t
2) Nc1ccc(-c2nc(F)c([C@@H]3CCc4nc(-c5cc(Cl)ccc5-n5cnnn5)cc(=O)n43)[nH]2)c(F)n1 | t
3) Nc1ccc(-c2nc(Cl)c([C@@H]3CCc4cc(-c5cc(Cl)ccc5-n5cnnn5)cc(=O)n43)[nH]2)c(F)n1 | t
4) COC(=O)Nc1ccc(-c2nc(Cl)c([C@@H]3CCc4nc(-c5cc(Cl)ccc5-n5cnnn5)cc(=O)n43)[nH]2)cc1 | f
5) Nc1ccc(-c2nc(F)c([C@@H]3CCc4cc(-c5cc(Cl)ccc5-n5cnnn5)cc(=O)n43)[nH]2)cn1 | f
6) Nc1ccc(-c2[nH]c([C@@H]3CCc4nc(-c5cc(Cl)ccc5-n5cnnn5)cc(=O)n43)nc2Cl)c(F)n1 | f
